System: SW-620 colon
Assay: NCI-60 one-dose screen, 48 h (100 = growth as untreated, 0 = no growth, -100 = all killed)
Conditions: 10 µM unless noted
Compounds without any hit were thinned out: in the full panel of roughly 83,000, 20% have a hit.
Reported values of growth for individual entries
The response must be a number in % with no trailing unit.

Some entries whose results are on file:
1) O=C(Cn1c[n+](CC(=O)c2ccc([N+](=O)[O-])cc2)c2ccccc21)Nc1cccc2cccnc12 :: 54.8
2) CCCCCCNC(=O)Oc1ccc(/C(=C(\C)c2ccccc2)c2ccc(OCCN3CCCCC3)cc2)cc1 :: 34.1
3) O=C1Nc2cc(-c3ccc(NC(=O)c4ccccc4)cc3)ccc2/C1=C/c1ccc[nH]1 :: 105
4) NC(=O)Nc1ccc(-n2cnc3cc(-c4ccc(O)cc4)ccc32)cc1 :: 114
5) CC(C)(C)c1cc(/C=N/NC(=O)c2ccccc2NC(=O)c2cccs2)c(O)c(C(C)(C)C)c1 :: 17.1
6) CC(=O)OC[C@]12CC[C@@H](C(=O)CBr)[C@@H]1[C@H]1CC[C@@H]3[C@@]4(C)CC[C@H](OC(C)=O)C(C)(C)[C@@H]4CC[C@@]3(C)[C@]1(C)CC2 :: 100
7) O=C(/C=C(/C=C/c1coc2ccccc12)OB(F)F)/C=C/c1coc2ccccc12 :: 86.3
8) CCOC(=O)c1cc(C(=O)c2ccc(Br)cc2)n2ccc(/C=C/c3cc[n+](CC(=O)c4ccc(OC)cc4)cc3)cc12 :: 48.6

input: If you can, please state the reported growth value of `Cc1cnc(C(=O)Nc2nc3ccc(S(=O)(=O)Nc4ccc(C5(C(F)(F)F)CC5)cc4)cc3[nH]2)cn1` .
output: 15

input: I would be grateful if you could share the reported growth for `CCOC(=O)Nc1ccc(-c2ccc3c(c2)NC(=O)/C3=C\c2ccc[nH]2)cc1` .
output: 113

input: What value of growth has been recorded for this entry: CC1(C)CC(O)CCCCCCOc2c(CN)cccc2NC(=O)c2nc(cnc2N)-c2ccc(cc2)S1(=O)=O (configuration not stated)
output: -6.55
